experiment: CCTE_Shafer_MEA_dev_bursting_electrodes_number: CCTE's Neural Network Formation Assay for Number of Bursting Electrodes, Shafer Lab (AID 2284043)
Records with an inconclusive call do not appear. Calls of active or inactive are those of the source. Rule for the calls: active = hit-call score of the fitted dose curve at least 0.9, where 1 is the maximum; inconclusive = response in the unintended direction; inactive = score below 0.9.
The reply should name one outcome from class 1 (active), class 0 (inactive)

Use these answered entries as a reference point.
| compound | class name |
| --- | --- |
| NCCc1cc(O)c(O)cc1O | class 1 |
| c1ccc2cc3c(cc2c1)-c1cccc2cccc-3c12 | class 0 |
| c1ccc2c(c1)cc1ccc3cccc4ccc2c1c34 | class 0 |
| COP(=O)(OC)SCN1C(=O)c2ccccc2C1=O | class 0 |
| O=C(O)CNCP(=O)(O)O | class 0 |
| CCOP(=O)(OCC)OC(Cl)C(Cl)(Cl)Cl (configuration not stated) | class 1 |

Q. Hello, I am checking results. What call was entered for "CC(=O)[O-].CC(=O)[O-].O.O.O.[Pb+2]" ?
A. class 1

Q. Hello, I am checking results. What call was entered for "CCOP(=O)(OCC)SCSC(C)(C)C" ?
A. class 1

Q. Hello, I am checking results. What call was entered for "CC(=O)[O-].[Tl+]" ?
A. class 0

Q. Hello, I am checking results. What call was entered for "CN1C(=O)CN=C(c2ccccc2)c2cc(Cl)ccc21" ?
A. class 1

Q. Hello, I am checking results. What call was entered for CCOP(=O)(O)OCC (tested in a mixture with another compound) ?
A. class 0
